Tested on: P12-Ichikawa
method_summary: cell viability relative to DMSO control; higher = less cytotoxic
applied_conditions: RPMI 5 mM glucose + 10% FBS; 48 h; 0.19 µM
Reported cell viability by item:

>>> observed_result("COc1cc2ncnc(Nc3cc(Br)c(O)c(Br)c3)c2cc1OC")
"113%"

Reported cell viability for P12-Ichikawa, given O=C(NC[C@H](O)CO)c1ccncc1Nc1ccc(I)cc1F ?
90.4%

Lab request: please report cell viability under test system P12-Ichikawa for C[C@]12CCC(=O)C=C1CC[C@@H]1[C@@H]2CC[C@@]2(C)[C@H]1CC[C@]2(C)O
102%

Requested read-out cell viability, target or system P12-Ichikawa, entry O=C(c1ccc(Nc2nccc(-c3cc4ccccc4s3)n2)cc1)N1CCC(N2CCCC2)CC1
107%

Given the entry CSCC[C@@H](NC(=O)[C@@H](Cc1ccccc1)NC(=O)CNC(=O)CNC(=O)[C@@H](N)Cc1ccc(O)cc1)C(=O)O , what cell viability was observed with P12-Ichikawa?
105%

GET /values?readout=cell viability&system=P12-Ichikawa&item= CCC[C@H]1C[C@H](C(=O)N[C@@H]([C@@H]2O[C@@H](SC)[C@@H](O)[C@@H](O)[C@H]2O)[C@H](C)Cl)N(C)C1
131%

// fetch P12-Ichikawa cell viability for OC[C@H]1OCC(O1)[N@@]2C=CC(N)=NC2=O (some centres not stated)
117%

Provide the documented cell viability with P12-Ichikawa as the system for FC1=CC=C(SC/2=N/N3\C=N/C(=O)/C(=C3/C=C2)C4=C(Cl)C=CC=C4Cl)C(=C1)F
104%

# get_value(readout= cell viability, system= P12-Ichikawa) for Cc1c(NC(=O)OC[C@@H]2COCCN2)cn2ncnc(Nc3ccc4c(cnn4Cc4cccc(F)c4)c3)c12
85.8%

Identify the measured cell viability of Cc1cnc(NC(=O)Nc2cc(Br)c(C)cc2OC[C@@H]2CNCCO2)cn1 for P12-Ichikawa.
115%

What is its cell viability for P12-Ichikawa? Entry: OC1=CC2=C(C(=C1)O)C(=O)\C=C(/O2)C3=CC=CC=C3
110%

Return cell viability measured with P12-Ichikawa given this compound: COc1ccc(-c2ccc3c(N4CCOC[C@@H]4C)nc(N4CCOC[C@@H]4C)nc3n2)cc1CO
59.7%

For the record COc1ccc(-c2nc(N3CCOCC3)c3sc(CN(C)c4ncc(C(=O)NO)cn4)cc3n2)cn1 , what value of cell viability is listed for P12-Ichikawa?
7.7%

Tell me reported cell viability for C[N]1C=C(C2=C1C=CC=C2)\C3=C(\C(=O)NC3=O)C4=C5CC(CN)CC[N]5C6=C4C=CC=C6 (configuration not stated) , tested with P12-Ichikawa.
117%

# get_value(readout= cell viability, system= P12-Ichikawa) for Cc1cc2c(F)c(Oc3ncnn4cc(OC[C@@H](C)O)c(C)c34)ccc2[nH]1
109%

Item FC(F)c1nc2ccccc2n1-c1nc(N2CCOCC2)nc(N2CCOCC2)n1 with P12-Ichikawa - cell viability?
71%

* * *

// values below are reported cell viability
Test system: NOMO1
method_summary: cell viability relative to DMSO control; higher = less cytotoxic
applied_conditions: RPMI 5 mM glucose + 10% FBS; 48 h; 1.71 µM
Field format: number, assumed %, no unit text.

Would you please look over these solved cases?
>>> observed_result("CC(C)NC[C@@H](C(=O)N1CCN(c2ncnc3c2[C@H](C)C[C@H]3O)CC1)c1ccc(Cl)cc1")
105
>>> observed_result("CCN1\\C=C(\\C(O)=O)C(=O)C2=CC=C(C)N=C12")
91
>>> observed_result("Cc1cc(C(C)(C)C)c(O)c(C)c1CC1=NCCN1")
97.8
>>> observed_result("C[S+](=O)([O-])N1CCc2c(-c3cnc(N)nc3)nc(N3CCOCC3)nc21")
88.9

Fill in: cell viability of C[S+]([O-])(=O)C1=CC=C(C=C1)C/2=C(/C(=O)OC2)C3=CC=CC=C3 is ___
119

Name the reported cell viability value associated with the compound Cc1cn(-c2cc(NC(=O)c3ccc(C)c(Nc4nccc(-c5cccnc5)n4)c3)cc(C(F)(F)F)c2)cn1
66.5

// returns reported cell viability for input C[C@]12CCC(=O)C=C1CC[C@@H]1[C@@H]2CC[C@@]2(C)[C@H]1CC[C@]2(C)O
86.8

Item CC(C)C1=C(O)C=C(O)C(=C1)C/2=N/NC(=O)N2C3=CC4=C(C=C3)[N](C)C=C4 has what recorded cell viability?
15.3

Given the entry CC(C)C[C@@H](C=O)NC(=O)[C@H](CC(C)C)NC(=O)[C@H](CC(C)C)NC(=O)OCc1ccccc1 , report its measured cell viability.
42.1

* * *

Tested on: SEM cells
method_summary: cell viability relative to DMSO control; higher = less cytotoxic
applied_conditions: HPLM + 10% dialyzed FBS; 48 h; 1.71 µM
Entries and their cell viability values follow.
Hi! Could you send only the number? It should be in %, unit omitted.

Some entries whose results are on file:
>>> observed_result("COc1cc2c(cc1OC)CC(=O)N(CCCN(C)C[C@H]1Cc3cc(OC)c(OC)cc31)CC2.Cl")
111
>>> observed_result("CC(C)C[C@@H](C=O)NC(=O)[C@H](CC(C)C)NC(=O)[C@H](CC(C)C)NC(=O)OCc1ccccc1")
9.69
>>> observed_result("N#Cc1c(NC(=O)c2cccc3ccccc23)sc2c1CCCC2")
23.2
>>> observed_result("C[C@@H]1[C@H](O)[C@@H](C)/C=C/C=C/C=C/C=C/C=C/C=C/C=C/[C@H](O[C@@H]2O[C@H](C)[C@@H](O)[C@H](N)[C@@H]2O)C[C@@H]2O[C@](O)(C[C@@H](O)C[C@@H](O)[C@H](O)CC[C@@H](O)C[C@@H](O)CC(=O)O[C@H]1C)C[C@H](O)[C@H]2C(=O)O")
114

Requested read-out: cell viability. Entry: Cc1cnc(NC(=O)Nc2cc(Br)c(C)cc2OC[C@@H]2CNCCO2)cn1
31.8

I would be grateful if you could share the reported cell viability for COc1ccc(C2CNC(=O)C2)cc1OC1CCCC1 (configuration not stated) .
102

Requested field: cell viability. Item: C[S+](=O)([O-])N1CCc2c(-c3cnc(N)nc3)nc(N3CCOCC3)nc21
63.4

Would you kindly share the measured cell viability for N=C(NCCCCCCNC(=N)NC(=N)Nc1ccc(Cl)cc1)NC(=N)Nc1ccc(Cl)cc1 ?
93.9

I have this compound here, Nc1ncnc2c1c(-c1cnc3[nH]ccc3c1)nn2C1CCCC1 , and I need its recorded cell viability.
69.6

* * *

Tested on: P12-Ichikawa
method_summary: cell viability relative to DMSO control; higher = less cytotoxic
applied_conditions: RPMI 5 mM glucose + 10% FBS; 48 h; 0.00234 µM
The reader will find reported cell viability values listed item by item below.
Quick reminder: number only, in %, skip the unit.

Known results for molecules:
>>> observed_result("CN1CCN(c2ccc([N+](=O)[O-])c3no[n+]([O-])c23)CC1")
92.4
>>> observed_result("CN(C)[C@H]\\1[C@@H]2C[C@H]3C(=C(O)\\[C@]2(O)C(=O)\\C(=C1O)C(N)=O)/C(=O)C4=C(O)C=CC=C4[C@@]3(C)O")
103
>>> observed_result("CC(C)C(=O)Oc1ccc(CO)cc1[C@H](CCN(C(C)C)C(C)C)c1ccccc1")
82.5

Checklist item: cell viability tested on P12-Ichikawa, entry S=P(N1CC1)(N1CC1)N1CC1 , value?
99

Find the measured cell viability: item CCn1c(-c2nonc2N)nc2cnc(Oc3cccc(NC(=O)c4ccc(OCCN5CCOCC5)cc4)c3)cc21 , target or system P12-Ichikawa.
122

Could you share what cell viability was measured for FC1=CC=C(SC/2=N/N3\C=N/C(=O)/C(=C3/C=C2)C4=C(Cl)C=CC=C4Cl)C(=C1)F , tested on P12-Ichikawa?
101

* * *

Test system: SEM cells
method_summary: cell viability relative to DMSO control; higher = less cytotoxic
applied_conditions: HPLM + 10% dialyzed FBS; 48 h; 46.1 µM
Label key: fulfilled means cell viability under 80%; not fulfilled means cell viability of 80% or more.

>>> category("C[C@@H]1[C@H](O)[C@@H](C)/C=C/C=C/C=C/C=C/C=C/C=C/C=C/[C@H](O[C@@H]2O[C@H](C)[C@@H](O)[C@H](N)[C@@H]2O)C[C@@H]2O[C@](O)(C[C@@H](O)C[C@@H](O)[C@H](O)CC[C@@H](O)C[C@@H](O)CC(=O)O[C@H]1C)C[C@H](O)[C@H]2C(=O)O")
"not fulfilled"
>>> category("C[C@@H]\\1CC(=O)N\\N=C1C2=CC=C(NN=C(C#N)C#N)C=C2")
"fulfilled"
>>> category("Cc1cnc(-c2cc(N3CCN(C(=O)CC[S+](C)(=O)[O-])CC3)ncc2Cl)c(C)c1")
"not fulfilled"
>>> category("OC1CCC(Nc2ncc3nc(Nc4c(F)cc(F)cc4F)n([C@@H]4CCOC4)c3n2)CC1 (some centres not stated)")
"not fulfilled"
>>> category("Cn1c(CNc2ccc(C(=N)N)cc2)nc2cc(C(=O)N(CCC(=O)O)c3ccccn3)ccc21")
"not fulfilled"

Now for a further molecule.
I'd appreciate it if you could check whether COC1=CC=C(C=C1)C/2=C/OC3=C(C(=CC(=C3)O)O)C2=O has cell viability smaller than 80%.
fulfilled
